The measured values listed here are drawn from patent US10106556B2.

test system: His-hMAGL (recombinant polyhistidine tagged human MAGL protein) (Homo sapiens)
Construct: made in house; host or cells: E. coli BL21(DE3)
Sequence (Q99685 1-303): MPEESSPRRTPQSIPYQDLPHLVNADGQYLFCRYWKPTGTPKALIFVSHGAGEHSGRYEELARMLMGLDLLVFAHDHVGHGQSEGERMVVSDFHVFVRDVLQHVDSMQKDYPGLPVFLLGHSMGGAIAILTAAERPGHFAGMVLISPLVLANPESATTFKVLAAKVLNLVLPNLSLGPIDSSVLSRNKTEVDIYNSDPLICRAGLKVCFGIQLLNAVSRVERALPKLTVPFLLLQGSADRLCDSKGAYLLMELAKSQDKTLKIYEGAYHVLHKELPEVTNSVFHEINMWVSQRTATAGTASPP
measurement description: Measurement of MAGL inhibitory activity (arachidonic acid production from 2-arachidonylglycerol, RapidFire-mass spectrometry)
Format: biochemical
experimental conditions: MAGL inhibitory rate at 10 μM test compound; 60 min preincubation with His-hMAGL, 2-arachidonylglycerol substrate, 10 min reaction at room temperature
I'd be grateful if you could share measured inhibition at 10 µM for these entries.
Response body: numeric value in %, unit text excluded.

**Query** Test system His-hMAGL (recombinant polyhistidine tagged human MAGL protein) (Homo sapiens); read-out inhibition at 10 µM; what value for "O=C1COc2cc(F)c(C(=O)N3CC(OCc4cccc(F)c4)C3)cc2N1" ?
**Result** 100

**Query** Test system His-hMAGL (recombinant polyhistidine tagged human MAGL protein) (Homo sapiens); read-out inhibition at 10 µM; what value for CC(Oc1ccc(F)cc1F)C1CCN(C(=O)c2cc3c(cc2F)OCC(=O)N3)CC1 (centres unmarked) ?
**Result** 99

**Query** Test system His-hMAGL (recombinant polyhistidine tagged human MAGL protein) (Homo sapiens); read-out inhibition at 10 µM; what value for "O=C1COc2cc(F)c(C(=O)N3CC(COc4ccc5c(c4)CCCC5)C3)cc2N1" ?
**Result** 102

**Query** Test system His-hMAGL (recombinant polyhistidine tagged human MAGL protein) (Homo sapiens); read-out inhibition at 10 µM; what value for "O=C1COc2ncc(C(=O)N3CCC(COc4cc(F)ccc4Cl)CC3)cc2N1" ?
**Result** 99

**Query** Test system His-hMAGL (recombinant polyhistidine tagged human MAGL protein) (Homo sapiens); read-out inhibition at 10 µM; what value for "COc1cc(F)ccc1OCC1CN(C(=O)c2cc3c(cc2F)OCC(=O)N3)C1" ?
**Result** 99

**Query** Test system His-hMAGL (recombinant polyhistidine tagged human MAGL protein) (Homo sapiens); read-out inhibition at 10 µM; what value for "O=C1COc2cc(F)c(C(=O)N3CC(COc4ccc(-c5ccncc5F)cc4F)C3)cc2N1" ?
**Result** 100

**Query** Test system His-hMAGL (recombinant polyhistidine tagged human MAGL protein) (Homo sapiens); read-out inhibition at 10 µM; what value for "Cc1cccc(OCC2CN(C(=O)c3cc4c(cc3F)OCC(=O)N4)C2)c1" ?
**Result** 102

**Query** Test system His-hMAGL (recombinant polyhistidine tagged human MAGL protein) (Homo sapiens); read-out inhibition at 10 µM; what value for "Cn1ccc(-c2cc(Cl)ccc2OCC2CN(C(=O)c3cc4c(cc3F)OCC(=O)N4)C2)n1" ?
**Result** 97

**Query** Test system His-hMAGL (recombinant polyhistidine tagged human MAGL protein) (Homo sapiens); read-out inhibition at 10 µM; what value for CC(Oc1c(F)cccc1F)C1CN(C(=O)c2cc3c(cc2F)OCC(=O)N3)C1 (centres unmarked) ?
**Result** 100

**Query** Test system His-hMAGL (recombinant polyhistidine tagged human MAGL protein) (Homo sapiens); read-out inhibition at 10 µM; what value for "O=C1COc2cc(F)c(C(=O)N3CCC(COc4ccccc4)CC3)cc2N1" ?
**Result** 98

**Query** Test system His-hMAGL (recombinant polyhistidine tagged human MAGL protein) (Homo sapiens); read-out inhibition at 10 µM; what value for "Cc1ccc(OCC2CCN(C(=O)c3ccc4c(c3)NC(=O)CO4)CC2)c(C)n1" ?
**Result** 84

**Query** Test system His-hMAGL (recombinant polyhistidine tagged human MAGL protein) (Homo sapiens); read-out inhibition at 10 µM; what value for "O=C1COc2cc(F)c(C(=O)N3CC(COc4ccc(-c5cnn(C6CC6)c5)cc4F)C3)cc2N1" ?
**Result** 98

**Query** Test system His-hMAGL (recombinant polyhistidine tagged human MAGL protein) (Homo sapiens); read-out inhibition at 10 µM; what value for "O=C1COc2cc(F)c(C(=O)N3CC(COc4ccc(-c5cncc(F)c5)cc4F)C3)cc2N1" ?
**Result** 97

**Query** Test system His-hMAGL (recombinant polyhistidine tagged human MAGL protein) (Homo sapiens); read-out inhibition at 10 µM; what value for "Cc1ccc(-c2ccc(OCC3CN(C(=O)c4cc5c(cc4F)OCC(=O)N5)C3)c(F)c2)cn1" ?
**Result** 97
